Listed here are binders together with their documented Rumax reference cycle.
- SYSTEM: T1, recombinant human EGFR extracellular domain with 6xHis (human, UniProt P00533 25-645)
- T1 construct: In-house produced; also called 6xHis EGFR ECD; soluble human EGFR ECD; not shown: 6xHis tag
- PROTOCOL: SPR, EGFR ECD without competitor
Report only the number, with the unit Ru understood.

BINDER	VALUE KIND	UNITS	TEST VALUE
antibody 1347 (antibody, human IgG1, kappa, V domains shown, Chimeric IgG1 kappa) VH: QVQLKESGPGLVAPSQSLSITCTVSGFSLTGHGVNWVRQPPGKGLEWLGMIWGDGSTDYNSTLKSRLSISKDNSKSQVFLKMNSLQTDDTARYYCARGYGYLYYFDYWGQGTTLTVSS VL: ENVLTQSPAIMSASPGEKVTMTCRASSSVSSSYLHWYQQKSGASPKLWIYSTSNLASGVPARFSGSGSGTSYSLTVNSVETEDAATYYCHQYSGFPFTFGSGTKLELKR	Rumax reference cycle	Ru	75
antibody 1261 (antibody, human IgG1, kappa, V domains shown, Chimeric IgG1 kappa) VH: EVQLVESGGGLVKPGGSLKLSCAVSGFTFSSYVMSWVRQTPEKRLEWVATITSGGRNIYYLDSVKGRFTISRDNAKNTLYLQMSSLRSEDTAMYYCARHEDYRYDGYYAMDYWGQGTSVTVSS VL: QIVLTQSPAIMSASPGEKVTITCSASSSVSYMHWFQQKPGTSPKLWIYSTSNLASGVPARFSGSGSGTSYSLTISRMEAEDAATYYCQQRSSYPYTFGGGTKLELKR	Rumax reference cycle	Ru	157
antibody 992 (antibody, human IgG1, kappa, V domains shown, Chimeric mouse/human IgG1 kappa; the VL entry includes the human kappa constant region) VH: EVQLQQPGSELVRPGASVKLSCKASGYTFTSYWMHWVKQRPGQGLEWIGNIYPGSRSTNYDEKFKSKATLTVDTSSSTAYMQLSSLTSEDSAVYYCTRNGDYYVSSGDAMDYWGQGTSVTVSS VL: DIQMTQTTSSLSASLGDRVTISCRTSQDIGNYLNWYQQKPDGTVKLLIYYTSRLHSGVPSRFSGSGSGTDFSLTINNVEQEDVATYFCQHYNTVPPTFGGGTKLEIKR	Rumax reference cycle	Ru	81

Could you now consider this next binder?
Input: Tell me the measured Rumax reference cycle of antibody 1024 (antibody, human IgG1, kappa, V domains shown, Chimeric IgG1 kappa) VH: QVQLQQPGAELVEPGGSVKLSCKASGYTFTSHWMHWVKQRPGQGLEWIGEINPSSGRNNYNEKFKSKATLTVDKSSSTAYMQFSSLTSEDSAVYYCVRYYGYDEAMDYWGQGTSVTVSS VL: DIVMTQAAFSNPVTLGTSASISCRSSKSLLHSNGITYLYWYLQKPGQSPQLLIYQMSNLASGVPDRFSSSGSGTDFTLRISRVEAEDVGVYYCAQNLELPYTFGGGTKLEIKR , please.
Output: 100

Hello, the source for this data is patent US20110135636A1, in case you need it.
